Could you please report measured melting point for the items listed next?
Structures can show the parent of a compound that is named as a salt.

Look over these answered cases.
| compound | readout.value |
| --- | --- |
| COc1cc2[nH]c(N3CCc4c(cccc4/N=C(\C)N(C)C)C3)nc(=O)c2c(C)c1OC | 270.9 to 273.5 °C |
| CNCc1ccc2c(c1)CN(c1nc(=O)c3c(OC)c(OC)c(OC)cc3[nH]1)CC2 | 178.1 to 180.9 °C |
| COc1cc2c(cc1OC)CN(c1nc(=O)c3c(C(C)C)c(OC)c(OC)cc3[nH]1)CC2 (as salt: HCl) | 243 to 244 °C |

Field: melting point. Fill in for each record below.
1. COc1cc2[nH]c(N3CCC(Cc4cccc(C(=O)O)c4)CC3)nc(=O)c2c(OC)c1OC
2. COc1cc2c(cc1OC)CN(c1nc(=O)c3c(OC)c(OC)c(OC)cc3[nH]1)CC2 (as salt: HCl)
3. COC[C@H]1CCCN1CCC1CCN(c2nc(=O)c3c(C)c(OC)c(OC)cc3[nH]2)CC1
4. COc1cc2[nH]c(N3CCc4ccc(/N=C(\C)N(C)C)cc4C3)nc(=O)c2c(C)c1OC

1: 245 to 249 °C; 2: 267 to 270 °C; 3: 219 to 221.9 °C; 4: 176 to 177.1 °C

Field: melting point. Fill in for each record below.
1. COc1cc2[nH]c(N3CCC(OCc4cccc(N(S(C)(=O)=O)S(C)(=O)=O)c4)CC3)nc(=O)c2c(OC)c1OC
2. CCN(C)Cc1cccc2c1CCN(c1nc(=O)c3c(OC)c(OC)c(OC)cc3[nH]1)C2
3. COc1cc2[nH]c(N3CCc4c(cccc4N=C4N(C)CCN4C)C3)nc(=O)c2c(OC)c1OC
4. COc1cc2[nH]c(N3CCC(Cc4ccccc4)CC3)nc(=O)c2c(OC)c1OC
5. COC[C@H]1CCCN1CCC1CCN(c2nc(=O)c3c(OC)c(OC)c(OC)cc3[nH]2)CC1

100.7 to 160.4 °C
214 to 216.9 °C
215 to 217.5 °C
212 to 215 °C
65 to 79.1 °C

Field: melting point. Fill in for each record below.
1. COc1cc2[nH]c(N3CCc4c(cccc4C4=NCCN4C)C3)nc(=O)c2c(C)c1OC
2. COc1cc2[nH]c(N3CCCC3c3cccc(N4CCN=C4C)c3)nc(=O)c2c(OC)c1OC (stereo not shown)
3. COc1cc2[nH]c(N3CCN(C4=NCCN4c4cccc(F)c4)CC3)nc(=O)c2c(C)c1OC
4. COc1cc2[nH]c(N3CCN(c4cccc(C)n4)CC3)nc(=O)c2c(OC)c1OC

246 to 250 °C
205.1 to 209.1 °C
257.9 to 260 °C
231.1 to 232.2 °C

---

Where a name gives a salt, the structure may show the parent alone.
reported.endpoint: melting point

Look over these answered cases.
| molecule | melting point |
| --- | --- |
| COc1cc2[nH]c(N3CCN(c4ccccn4)CC3)nc(=O)c2c(C)c1OC (as salt: HCl) | 286.6 to 293.1 °C |
| COc1cc2[nH]c(N3CCc4c(ncnc4N4CCOCC4)C3)nc(=O)c2c(OC)c1OC (as salt: HCl) | 190 to 192 °C |
| COc1cc2[nH]c(N3CCN(c4cccc(C)n4)CC3)nc(=O)c2c(C)c1OC | 284.5 to 285.5 °C |

Given the molecule COc1cc2[nH]c(N3CCCC3c3cccc(NCCNC(C)=O)c3)nc(=O)c2c(OC)c1OC (stereo not shown) , write its reported melting point. 188.6 to 191 °C
